test system: ACHN; assay: NCI tumour cell line growth inhibition, 48 h
Calls of active or inactive are those of the source. Cut-off read from the data, not from the text of the source: active = GI50 up to about 1.1 µM and inactive = higher.
Mark one answer only. Choices: active, inactive

Problem: Identify the outcome logged in this assay for the molecule shown: O=C(c1ccccc1)c1ccc(C(c2c(O)c3ccccc3oc2=O)c2c(O)c3ccccc3oc2=O)cc1
Result: inactive

Problem: Can you look up the reported call for Nc1ccccc1OCc1cc(=O)c(OCc2ccccc2)co1 for me?
Result: inactive

Problem: Status in this test for O=c1[nH]c(C23CC4CC(CC(C4)C2)C3)cc2c1c(=O)oc1ccccc12 ?
Result: inactive

Problem: What did the test return for O=Cc1ccc2c(c1-c1c(C=O)ccc3c1OCO3)OCO2 ?
Result: inactive

Problem: Field: outcome | Entry: CCC/C(=N\NC(=S)N1CCN(c2ccccn2)CC1)c1ccccn1
Result: active

Problem: Hey, what did the test say about O=c1oc2ccccc2n1CCN1CCCCC1 ?
Result: inactive

Problem: What call does the record list for O=CC12CCCN1CCC2 ?
Result: inactive

Problem: Tell me the assay call for CC(C(=O)OCc1ccccc1)(c1ccco1)N1C(=O)OC(c2ccccc2)C1c1ccccc1 (stereo unspecified) please.
Result: inactive

Problem: Hey, what did the test say about CCOC(=O)C1(C(=O)OCC)OC(=O)NC2=C1CCCC2 ?
Result: inactive

Problem: Recorded test outcome, item CC(C)C(=O)Nc1nc2c(ncn2C2OC(CO)C(O)C2O)c(=O)[nH]1 (stereo unspecified)
Result: inactive

Problem: # lookup: test call for Cc1cccc(NC(=S)N/N=C(/c2ccccc2)c2ccccn2)c1
Result: active

---

test system: BT-549; assay: NCI tumour cell line growth inhibition, 48 h
Active and inactive are the calls of the source. Rule as the data show it: active = GI50 up to about 1.1 µM and inactive = higher.
Kindly supply the reported GI50 values for the records listed here.

Noted for Cc1ccc(S(=O)(=O)NC(=O)NC2=NC(C)(C)N(c3ccc(Cl)c(Cl)c3)C(N)=N2)cc1 : its GI50 reads > 100 µM (inactive)

GI50 in this record for CNc1ncccc1Nc1cc(=O)n2c3cccnc3n(C)c2c1 : > 100 µM (inactive)

GI50 recorded for this compound, COc1cc2c(cc1O)C(c1cc(O)c(O)c(OC)c1)C(O)(C(=O)O)C(CO)C2O (stereo not given) , is > 100 µM (inactive)

Input CC1(C)Oc2ccc(NC(=O)CCC(N)C(=O)O)cc2O1 (stereo not given) . Output GI50: > 100 µM (inactive)

Note to self: GI50 recorded for N#Cc1cc2c(n(C3OC(CO)C(O)C(O)C3O)c1=S)CCCCC2 (stereo not given) was > 100 µM (inactive)

Lookup result for Cc1cc(C)nc(NS(=O)(=O)c2ccc(NC(=O)c3ccc4nc5ccccc5c(Nc5ccc(S(=O)(=O)Nc6nc(C)cc(C)n6)cc5)c4c3)cc2)n1 ; measured GI50: 19 µM (inactive)

Lookup result for CC(=O)O[C@H]1C(=O)[C@@]2(C)C(C(OC(=O)c3ccccc3)[C@]3(O)CC(OC(=O)C(O)C(NC(=O)c4ccccc4)c4cccc(Cl)c4)C(C)=C1C3(C)C)[C@]1(OC(C)=O)CO[C@@H]1C[C@@H]2O (stereo not given in full) ; measured GI50: > 10 µM (inactive)

For reference, reported GI50 for CC(/C=N/N(C)C1=NCCCCN1)=N/N(C)C1=NCCCCN1 stands at > 100 µM (inactive)

Notebook: COC(=O)C1CCOC(C)N1C(=O)OC(C)(C)C (stereo not given) , GI50 read as > 100 µM (inactive)

CN(C)c1ccc(/C=N/c2ccc(-c3nc4ccccc4o3)cc2)cc1 has a reported GI50 of 32.4 µM (inactive)
